procedure_text: NCI Yeast Anticancer Drug Screen. Data for the mlh1 rad18 strain (AID 175)
condition_description: S. cerevisiae mlh1 rad18 strain growth inhibition; at 5.0 µM (retest, dose inferred, filed as 0.5); stronger effect = higher value
About 79,000 compounds went through this panel and 15% of them were active in at least one assay; those are over-represented in the sample as a whole. Calls of active or inactive are those of the source. No stated cut-off is given here; in the data, active means growth inhibition above about 70%; inactive means the rest.
measure: growth inhibition

molecule	measured
OCCN(CCO)c1ccc2c(c1)Cc1ccccc1-2	23% (inactive)
COc1ccc(N=N/C(=N\NC(=O)c2cc(Br)ccc2O)c2ccc(N(CCC#N)CCC#N)cc2OC)cc1	20% (inactive)

Items follow; give growth inhibition for each.
1. COc1cc(N(C)C)ccc1/C=C\c1ccnc2ccccc12
2. CCC(=O)Oc1ccc(/C=N/NC(N)=S)nc1
3. C(=N/NC1=NCCN1)/c1c2ccccc2c(/C=N\NC2=NCCN2)c2ccccc12
4. CCCCCCCCCCCCCC(=O)OC(C)CCC1CCCO1 (stereo unspecified)
5. N#C/C(=C1C=C(Br)/C(=N\O)C=C\1Cl)c1cccc2ccccc12
6. O=C(/C=C/c1cccc(Br)c1)c1ccc(Cl)cc1
7. CCCCOC(=O)CSSCC(=O)OCCCC

Response:
1. -8% (inactive)
2. -2% (inactive)
3. -14% (inactive)
4. -2% (inactive)
5. 100% (active)
6. 26% (inactive)
7. 40% (inactive)

Items follow; give growth inhibition for each.
1. COc1cccc(C(c2cc3c(cc2O)OCO3)N2CCOCC2)c1OC (stereo unspecified)
2. O=C(Nc1cccc(C(F)(F)F)c1)Oc1ccc(Cl)cc1C(=O)c1ccccc1

Response:
1: 19% (inactive); 2: 100% (active)

* * *

procedure_text: NCI Yeast Anticancer Drug Screen. Data for the rad14 strain (AID 159);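 further: 0% = growth of vehicle-treated control cultures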
condition_description: S. cerevisiae rad14 strain growth inhibition; at 100.0 µM; stronger effect = higher value
This is part of a sample that, as a whole, favours compounds with a hit. Of some 79,000 tested, about 15% had one in any assay.
measure: growth inhibition (%)
Numbers only, in %.

// solved cases for growth inhibition follow
molecule	growth inhibition [%]
O=C(CCc1ccccc1)ON1C(=S)C(c2ccccc2)(c2ccccc2)N=C1Sc1ccccc1	36
CCc1nc(N)nc(N)c1-c1ccc(NCCCCCCN)c([N+](=O)[O-])c1	0
CC(C)c1cccc(O)c(=O)c1	99
CCOC(=O)c1csc(Br)n1	-8

The record that follows has no growth inhibition shown yet.
Query: Read the entry COc1cc([C@@H]2c3cc4c(cc3[C@@H](OC3OC5COC(C)OC5C(O)C3O)[C@H]3COC(=O)[C@H]23)OCO4)cc(OC)c1O (stereo not given in full) and write its reported growth inhibition.
Response: 12

* * *

procedure_text: NCI Yeast Anticancer Drug Screen. Data for the wt2 strain (AID 169);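 further: 0% = growth of vehicle-treated yeast cultures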
condition_description: S. cerevisiae wt2 strain growth inhibition; at 3.7 µM; stronger effect = higher value
Compounds without any hit were thinned out: in the full panel of roughly 79,000, 15% have a hit. Activity calls are given as the source filed them. Rule as the data show it: active = growth inhibition above about 70%; inactive = the rest. Residues, ends and D or L forms follow the SMILES beside them. *: point of attachment. CH2Cl = ClC*
Assignment: determine reported growth inhibition for the given molecules.

// solved cases for growth inhibition follow
molecule	growth inhibition
CC(=O)NC(CC(C)C)C(=O)NC(Cc1ccccc1)C(=O)CCl (stereo not drawn) (Ac-Leu-Phe-CH2Cl; configuration not given here)	-3% (inactive)
Cc1cc(C(C)(C)CC(C)(C)C)cc(O)c1O	27% (inactive)

Items follow; give growth inhibition for each.
1. CC(=O)OCC1OC(O[C@H]2C=C[C@@H](C(=O)OCc3ccccc3)n3c(=O)n(-c4ccccc4)c(=O)n32)C(OC(C)=O)C(OC(C)=O)C1OC(C)=O (some centres undefined)
2. O=[N+]([O-])c1cccc2nc3ccccc3c(NCCc3cccc[n+]3[O-])c12

Response:
-18% (inactive)
3% (inactive)

* * *

procedure_text: NCI Yeast Anticancer Drug Screen. Data for the rad14 strain (AID 159);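 further: 0% = growth of vehicle-treated control cultures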
condition_description: S. cerevisiae rad14 strain growth inhibition; at 1.2 µM; stronger effect = higher value
Method: Growth inhibition of yeast strains with defined genetic alterations is measured as a screen for potential anti-cancer activity. Selected strains with alterations in DNA damage repair or cell cycle control were exposed to compounds and growth inhibition was measured relative to vehicle treated controls. The strain used in this assay is rad14
The panel holds about 79,000 compounds, 15% with a hit somewhere; the sample as a whole holds those more often.
Assignment: determine reported growth inhibition for the given compounds.
Answers are plain numbers, in %.

compound	growth inhibition, %
COC(=O)c1cccc(C)c1C(=O)c1c(C)cc(C)cc1C	0
Clc1c(Cl)c(Cl)c2c(nnn2C2CCCO2)c1Cl (configuration not stated)	-11
N#CC(=S)Nc1cccc(Cl)c1	2
CNc1nc(C)nc2c1cnn2-c1ccc([N+](=O)[O-])cc1	11
COC(=O)CSc1nnc(CSc2ccc(Cl)cc2)n1-c1ccccc1	0
Nc1ccc2c(c1)sc1ccccc12	-3
CC(=O)[C@]1(O)Cc2c(O)c3c(c(O)c2[C@@H](OC2CC(N)C(O)C(C)O2)C1)C(=O)c1c(OCc2ccccc2)cccc1C3=O (some centres not stated)	7
CCOC(=O)[C@]1(Br)CC[C@@]1(Br)C(=O)OCC	-53

Items follow; give growth inhibition for each.
1. Nc1ccc(S(=O)(=O)Nc2ccc(Nc3c4ccccc4nc4ccccc34)cc2)cc1
2. Oc1ccc(Br)cc1C=NC1CCCCC1

Response:
1. 7
2. 15

* * *

procedure_text: NCI Yeast Anticancer Drug Screen. Data for the mgt1 strain (AID 153)
condition_description: S. cerevisiae mgt1 mutant growth inhibition; at 11.0 µM
Compounds without any hit were thinned out: in the full panel of roughly 79,000, 15% have a hit. Activity calls are given as the source filed them. No stated cut-off is given here; in the data, active means growth inhibition above about 70%; inactive means the rest.
Answer with one of the outcomes true (1) = active, false (0) = inactive

Worked examples, 5 compounds total:
compound	group_label
Cc1cc(Cl)nc2nc(Cl)c(N)cc12	false (0)
O=NN(CCCl)C(=O)NCCCl	false (0)
O=C(/C=C/c1cccc(Br)c1)c1ccc(Cl)cc1	false (0)
Nc1nc(F)nc2c1ncn2C1OC(COP(=O)(O)O)C(O)C1O (stereo not drawn)	false (0)
COc1cc(N)ccc1Nc1c2ccccc2nc2ccccc12	false (0)

Query: Which outcome did this test record for the compound Cc1cc(C)c(N2C(=O)CC(Sc3ccccc3N)C2=O)c(C)c1 (stereo not drawn) ?
Response: false (0)

Query: Which outcome did this test record for the compound O=[N+]([O-])c1cc(S(=O)(=O)Nc2ccccc2)ccc1Cl ?
Response: false (0)

Query: Which outcome did this test record for the compound NNC(=S)Nc1cccc(Cl)c1 ?
Response: false (0)

Query: Which outcome did this test record for the compound N#CC(=C1C=CC(=NO)C=C1)c1ccccc1 ?
Response: true (1)

* * *

procedure_text: NCI Yeast Anticancer Drug Screen. Data for the bub3 strain (AID 167)
condition_description: S. cerevisiae bub3 mutant strain, at 100.0 µM, stronger effect = higher value
The panel holds about 79,000 compounds, 15% with a hit somewhere; the sample as a whole holds those more often.
measure: growth inhibition (%)
Numbers only, in %.

compound	unit_spec	growth inhibition
CC1CCC2(C(=O)O)CCC3(C)C(=CCC4C5(C)CC(O)C(O)C(C)(CO)C5C(O)CC43C)C2C1C (stereo unspecified)	%	95

Items follow; give growth inhibition for each.
1. CN(Cc1cnc2nc(N)nc(N)c2n1)c1ccc(C(=O)NC(CCC(=O)O)C(=O)O)c2ccccc12 (stereo unspecified)
2. OCCN(CCO)c1ccc2c(c1)Cc1ccccc1-2
3. COc1cc(N)ccc1Nc1c2ccccc2nc2ccccc12
4. CCCCC(=O)c1c(O)nc2sccn2c1=O
5. CCc1[nH]nc(C(N)=O)c1N=NN(C)C

Response:
1: 84; 2: 1; 3: 85; 4: 96; 5: 14

* * *

procedure_text: NCI Yeast Anticancer Drug Screen. Data for the rad50EPP+ strain (AID 151);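 further: 0% = growth of vehicle-treated control cultures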
condition_description: S. cerevisiae rad50 mutant strain, at 33.0 µM
The panel holds about 79,000 compounds, 15% with a hit somewhere; the sample as a whole holds those more often. Activity calls are given as the source filed them. No stated cut-off is given here; in the data, active means growth inhibition above about 70%; inactive means the rest.
Answer with one of the outcomes active, inactive

molecule	group_label
CCOC(=O)CNC(=O)c1[nH]cnc1/N=N/N(C)C	inactive
CC(C)c1cccc(O)c(=O)c1	inactive

Switching to the query record.
Query: Which outcome did this test record for the molecule CCOC(=O)C1=C(C)NC(C)=C(C(=O)OCC)C1c1ccccc1Cl ?
Response: inactive

* * *

procedure_text: NCI Yeast Anticancer Drug Screen. Data for the CLN2oe strain (AID 163);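 further: 0% = growth of vehicle-only control cultures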
condition_description: S. cerevisiae CLN2oe strain, at 1.2 µM, stronger effect = higher value
The panel holds about 79,000 compounds, 15% with a hit somewhere; the sample as a whole holds those more often. The source made the active and inactive calls. No stated cut-off is given here; in the data, active means growth inhibition above about 70%; inactive means the rest.
measure: growth inhibition

// solved cases for growth inhibition follow
structure_as_smiles	growth inhibition
O=c1[nH]c2ccccc2c2nc3ccccc3n12	12% (inactive)
CCOC(=O)[C@]1(Br)CC[C@@]1(Br)C(=O)OCC	-3% (inactive)
O=C1C=CC(=Nc2ccccc2)c2ccccc21	-2% (inactive)
O=C1c2cccc3cc([N+](=O)[O-])cc(c23)C(=O)N1CCN1CCCC1	7% (inactive)
O=c1[nH]cc(/C=N\Nc2ccccc2)c(=O)[nH]1	-3% (inactive)

The record that follows has no growth inhibition shown yet.
Query: Read the entry CCOC(=O)Nc1ccc2c(c1)Cc1ccccc1-2 and write its reported growth inhibition.
Response: -9% (inactive)
